test system: Mannheimia haemolytica; assay: minimum inhibitory concentration (MIC); conditions: isolate (source animal id): 30
endpoint_name: minimum inhibitory concentration

{"compound": "C=C[C@]1(C)C[C@@H](OC(=O)CSCCN(CC)CC)[C@]2(C)[C@H](C)CC[C@]3(CCC(=O)[C@H]32)[C@@H](C)[C@@H]1O", "minimum inhibitory concentration": "8 µg/mL"}

So what does the record say about minimum inhibitory concentration for "CO/N=C(\C(=O)N[C@@H]1C(=O)N2C(C(=O)O)=C(CSC(=O)c3ccco3)CS[C@H]12)c1csc(N)n1" ?
≤ 0.25 µg/mL

So what does the record say about minimum inhibitory concentration for "COc1cc(NS(=O)(=O)c2ccc(N)cc2)nc(OC)n1" ?
> 256 µg/mL
